Hi there, I'd appreciate the recorded pIC50 for every entry that follows.
measured_target: recombinant human CK2 (Homo sapiens)
Construct: purchased Upstate
Sequence (P68400 whole entry): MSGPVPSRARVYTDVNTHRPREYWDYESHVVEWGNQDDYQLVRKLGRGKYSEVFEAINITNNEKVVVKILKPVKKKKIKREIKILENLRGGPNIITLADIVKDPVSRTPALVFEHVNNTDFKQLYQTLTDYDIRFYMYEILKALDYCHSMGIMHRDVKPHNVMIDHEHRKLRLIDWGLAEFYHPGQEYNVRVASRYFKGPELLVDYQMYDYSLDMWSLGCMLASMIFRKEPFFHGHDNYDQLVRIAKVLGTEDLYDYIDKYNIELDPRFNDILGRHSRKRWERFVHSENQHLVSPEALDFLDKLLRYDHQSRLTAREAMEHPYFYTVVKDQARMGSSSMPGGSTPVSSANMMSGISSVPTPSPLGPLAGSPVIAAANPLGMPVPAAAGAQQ
Sequence (P67870 whole entry partner): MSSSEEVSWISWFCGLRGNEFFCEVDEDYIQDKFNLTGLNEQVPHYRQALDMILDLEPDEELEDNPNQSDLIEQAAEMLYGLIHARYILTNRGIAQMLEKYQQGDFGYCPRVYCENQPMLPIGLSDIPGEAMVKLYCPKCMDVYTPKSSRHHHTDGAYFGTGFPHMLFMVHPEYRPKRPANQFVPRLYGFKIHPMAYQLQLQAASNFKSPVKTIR
assay_explanation: CK2 assay (cell-free, 33P-ATP filter plate)
Format: biochemical
condition_summary: Table 5
pIC50: −log10 of the molar value.

Example entries and their recorded answers appear below.
1. Cc1ccc(-c2cncc(N3CCCN(C)CC3)n2)cc1/C=C1\SC(=S)NC1=O    > 7.30
2. CN1CCCN(c2cncc(-c3cc(/C=C4\SC(=S)NC4=O)ccc3F)n2)CC1    > 7.30

# batch size: 5; output pIC50 per entry
1. O=C1NC(=O)/C(=C\c2ccc(F)c(-c3cncc(N4CCCNCC4)n3)c2)S1
2. CN1CCCN(c2cncc(-c3ccc(/C=C4\SC(=S)NC4=O)c(F)c3)n2)CC1
3. COC(=O)N1CCCN(c2cncc(-c3cc(/C=C4/SC(=O)NC4=O)ccc3F)n2)CC1
4. CC(C)NC(=O)N1CCCN(c2cncc(-c3cc(/C=C4/SC(=O)NC4=O)ccc3F)n2)CC1
5. CN1CCCN(c2cncc(-c3cc(/C=C4\SC(=O)NC4=O)ccc3F)n2)CC1

Response:
> 7.30
6.49
> 7.30
> 7.30
> 7.30

Request: Given the entry CN1CCCN(c2cncc(-c3cccc(/C=C4\SC(=O)N(C)C4=O)c3)n2)CC1 , what pIC50 was observed with recombinant human CK2 (Homo sapiens)?
Response: < 5.30

====

I'd be grateful if you could share measured pIC50 for these entries.
measured_target: recombinant PIM-1 (Homo sapiens, UniProt P11309)
Sequence (P11309 whole entry): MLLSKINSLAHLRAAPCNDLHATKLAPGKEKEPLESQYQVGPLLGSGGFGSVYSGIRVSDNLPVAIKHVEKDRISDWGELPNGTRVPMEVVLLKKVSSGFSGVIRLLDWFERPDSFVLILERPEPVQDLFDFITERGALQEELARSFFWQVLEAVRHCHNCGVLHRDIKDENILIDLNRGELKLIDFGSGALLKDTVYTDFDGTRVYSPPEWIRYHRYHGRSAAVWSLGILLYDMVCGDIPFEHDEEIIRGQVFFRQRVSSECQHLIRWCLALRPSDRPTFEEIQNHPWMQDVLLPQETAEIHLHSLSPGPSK
assay_explanation: PIM-1 assay (33P-ATP filter plate)
Assay type: biochemical
condition_summary: Table 5; read-out: PIM1: IC50
pIC50: −log10 of the molar value.

Some molecules with known pIC50 results, for comparison:
1) CN1CCCN(c2cncc(-c3cc(/C=C4\SC(=O)NC4=O)ccc3Cl)n2)CC1    > 7.30
2) Cc1ccc(-c2cncc(N3CCCN(C)CC3)n2)cc1/C=C1\SC(=O)NC1=O    > 7.30
3) CN1CCCN(c2cncc(-c3ccc(/C=C4\SC(=S)NC4=O)c(F)c3)n2)CC1    7.30

Quick request: pIC50 for each listed item, please.
1. CN1CCCN(c2cncc(-c3cncc(/C=C4\SC(=O)NC4=O)c3)n2)CC1
2. CN1CCCN(c2cncc(-c3cc(/C=C4\SC(=O)NC4=O)ccc3F)n2)CC1
3. Cc1ccc(-c2cncc(N3CCCN(C)CC3)n2)cc1/C=C1\SC(=S)NC1=O
4. CN1CCCN(c2cncc(-c3cc(/C=C4\SC(=S)NC4=O)ccc3F)n2)CC1

Response:
1: > 7.30; 2: > 7.30; 3: > 7.30; 4: > 7.30

====

measured_target: recombinant PIM-1 (Homo sapiens, UniProt P11309)
assay_explanation: PIM-1 assay (33P-ATP filter plate)
Assay type: biochemical
condition_summary: Table 4; read-out: PIM1: IC50
Description: The following procedure was used to assay the PIM-1 kinase activity of compounds of the invention. Other methods for assaying PIM-1 and other PIM kinases, as well as methods to assay for activity against the various kinases are known in the art. In a final reaction volume of 50 ul, recombinant PIM-1 (1 ng) was incubated with 12 mM MOPS pH 7.0, 0.4 mM EDTA, glycerol 1%, brij 35 0.002%, 2-mercaptoethanol 0.02%, BSA 0.2 mg/ml, 100 uM KKRNRTLTK, 10 mM MgAcetate, 15 uM ATP, [γ-^33P-ATP] […]
metric: IC50

Study these solved cases before continuing.
1. CN1CCCN(c2cncc(-c3ccc(/C=C4\SC(=S)NC4=O)o3)n2)CC1    141 nM
2. CN1CCCN(c2cncc(-c3ccc(/C=C4\SC(=O)NC4=O)o3)n2)CC1    22 nM
3. CN1CCCN(c2cncc(-c3cccc(/C=C4\SC(=O)NC4=O)c3)n2)CC1    1 nM

Please state, for each entry, its recorded IC50.
1. CN1CCCN(c2cncc(-c3ccc(/C=C4\NC(=O)NC4=O)o3)n2)CC1
2. CN1CCCN(c2cncc(-c3cccc(/C=C4\SC(=S)NC4=O)c3)n2)CC1

Response:
["1850 nM", "< 1 nM"]

Values compiled from patent US20100331315A1.
